// reported viability, T/C per item
- System: 349418-098-R-PDC spheroids, viability, % test/control;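 also: spheroids exposed to compounds for 7 days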
- test: Anticancer human tumor 349418-098-R-PDC patient-derived lung adenocarcinoma cell line growth inhibition [IpAb]
- conditionNotes: second compound 0.1 µM; first compound 0.1 µM; stronger effect = lower value; spheroids with HUVEC and MSC
Provide only the numeric value, understood in %.

INSERT INTO measurements (molecule, targetorsystem, reportedmeasurement) VALUES
  ('Cn1nccc1Nc1nccc(-c2ccn(C(CO)c3ccc(Cl)c(F)c3)c(=O)c2)n1 (stereo not given) + CC(C)NCC(C(=O)N1CCN(c2ncnc3c2C(C)CC3O)CC1)c1ccc(Cl)cc1', '349418-098-R-PDC spheroids, viability, % test/control', 35.9);

In one line, give reported viability, T/C of the entry Cn1nccc1Nc1nccc(-c2ccn(C(CO)c3ccc(Cl)c(F)c3)c(=O)c2)n1 (stereo not given) + CCN1CCN(Cc2ccc(Nc3ncc(F)c(-c4cc(F)c5nc(C)n(C(C)C)c5c4)n3)nc2)CC1 .
13.4

Please look at this molecule and report its viability, T/C: C=CCn1c(=O)c2cnc(Nc3ccc(N4CCN(C)CC4)cc3)nc2n1-c1cccc(C(C)(C)O)n1 + CCN1CCN(Cc2ccc(Nc3ncc(F)c(-c4cc(F)c5nc(C)n(C(C)C)c5c4)n3)nc2)CC1
30

Give the measured viability, T/C for Cn1ncnc1[C@H]1c2n[nH]c(=O)c3cc(F)cc(c23)N[C@@H]1c1ccc(F)cc1 + CCN1CCN(Cc2ccc(Nc3ncc(F)c(-c4cc(F)c5nc(C)n(C(C)C)c5c4)n3)nc2)CC1
16.4

Answer with the recorded viability, T/C of C=CCn1c(=O)c2cnc(Nc3ccc(N4CCN(C)CC4)cc3)nc2n1-c1cccc(C(C)(C)O)n1 + CC(C)NCC(C(=O)N1CCN(c2ncnc3c2C(C)CC3O)CC1)c1ccc(Cl)cc1 only.
73
